Hey, just so you know, these numbers are from patent US10087173B2.

# Test system: PH5CH cells
# assay_protocol: MTT cell viability assay, PH5CH cells, 72 h
# Type: cell-based
# condition_description: immortalized normal hepatocytes PH5CH, 0.016-50.0 μM tested
result_type: CC50

Endpoint output: CC50 of `N#Cc1sc(Nc2ncccn2)nc1-c1ccccn1` . Value?
≥ 50 µM

----------
# assay_protocol: MTT cell viability assay, PH5CH cells, 72 h
# Format: cell-based
# condition_description: human, immortalized normal hepatocytes PH5CH, 0.016-50.0 μM tested
CC50 at 72 h values for the compounds below.

Example cases with answers are listed next.
# compound, value
data = [
    ("CN(Cc1cnc2nc(N)nc(N)c2n1)c1ccc(C(=O)NC(CCC(=O)NCCOCCOCCOCCOCCOCCNC(=O)c2sc(Nc3ncccn3)nc2-c2ccccn2)C(=O)OC(C)(C)C)cc1 (stereo not drawn)", "≥ 50 µM"),
    ("CCCC(=O)OCc1sc(Nc2ncccn2)nc1-c1ccccn1", "≥ 50 µM"),
    ("CC(C)c1sc(Nc2ncccn2)nc1-c1ccccn1", "≥ 50 µM"),
    ("FC(F)(F)c1ccnc(Nc2nc(-c3ccccn3)cs2)n1", "≥ 50 µM"),
    ("Cc1ccc2nc(Nc3nc(-c4ccccn4)cs3)sc2c1", "3.97 µM"),
]

Note: attention shifts to another entry.
Reported CC50 at 72 h for `CC(=O)OCc1sc(Nc2ncccn2)nc1-c1ccccn1` : what is it?
≥ 50 µM

----------
# assay_protocol: MTT cell viability assay, THLE2 cells, 72 h
# Assay type: cell-based
# condition_description: human, immortalized normal hepatocytes THLE2, 72 hours, 0.016-50.0 μM tested
Note to self: CC50 at 72 h under 30 µM means satisfied, ties and anything higher get not satisfied.

Worked examples follow.
# compound_structure_string, answer_label
measured = [
    ("CCOC(=O)c1sc(Nc2ncccn2)nc1-c1ccccn1", "not satisfied"),
    ("c1ccc(-c2csc(Nc3ncccn3)n2)cc1", "satisfied"),
    ("Cc1cnc(-c2csc(Nc3ncccn3)n2)c(C)c1", "satisfied"),
    ("CNC(=O)c1sc(Nc2ncccn2)nc1-c1ccccn1", "satisfied"),
    ("CCOC(=O)c1sc(Nc2nccc(C)n2)nc1-c1ccccn1", "not satisfied"),
    ("O=C(NCc1ccccc1)c1sc(Nc2ncccn2)nc1-c1ccccn1", "not satisfied"),
    ("Oc1cccc(-c2csc(Nc3ncccn3)n2)n1", "not satisfied"),
    ("CCCCCc1sc(Nc2ncccn2)nc1-c1ccccn1", "not satisfied"),
]

Shifting focus to the compound that follows.
For this compound, is CC50 at 72 h lower than 30 µM? `Brc1cccc(-c2csc(Nc3ncccn3)n2)n1`
satisfied

----------
Reported log10 of CC50 at 72 h values for the following compounds.
# assay_protocol: MTT cell viability assay, THLE2 cells, 72 h
# Type: cell-based
# condition_description: human, immortalized normal hepatocytes THLE2, 72 hours, 0.016-50.0 μM tested
# log10 transformed; quantity=CC50 at 72 h; unit=µM

# compound_structure_string, log10 of CC50 at 72 h
measured = [
    ("c1cnc(Nc2nc(-c3ccc4ccccc4n3)cs2)nc1", 0.90),
]

Recorded log10 of CC50 at 72 h of `c1ccc(Nc2nc(-c3ccccc3)cs2)cc1` , please.
1.32

// log10 of CC50 at 72 h lookup, key: `c1ccc(-c2csc(Nc3cnccn3)n2)nc1`
-0.27

Can you look up the measured log10 of CC50 at 72 h of `Cc1sc(Nc2ncccn2)nc1-c1ccccn1` for me?
1.63

Bench note: what log10 of CC50 at 72 h did `Cc1ccnc(-c2csc(Nc3ncccn3)n2)c1` show?
1.15

I'd like to know its log10 of CC50 at 72 h. The compound in question is `c1ccc(-c2csc(Nc3ncccn3)n2)nc1`
1.60

Give its log10 of CC50 at 72 h value. Item: `CN(c1ncccn1)c1nc(-c2ccccn2)cs1`
1.69

----------
Entries and their CC50 at 72 h values follow.
# assay_protocol: MTT cell viability assay, PH5CH cells, 72 h
# Assay type: cell-based
# condition_description: human, immortalized normal hepatocytes PH5CH, 0.016-50.0 μM tested

Solved cases (6 shown):
# molecule, result_type, value
records = [
    ("CCOC(=O)c1sc(Nc2ncccn2)nc1-c1cccc(C)n1 [Entry 36]", "CC50 at 72 h", "≥ 50 µM"),
    ("CN(c1ncccn1)c1nc(-c2ccccn2)cs1 [Entry 15]", "CC50 at 72 h", "49.7 µM"),
    ("CCCCCc1sc(Nc2ncccn2)nc1-c1ccccn1 [Entry 25]", "CC50 at 72 h", "≥ 50 µM"),
    ("Cc1cnc(-c2csc(Nc3ncccn3)n2)c(C)c1 [Entry 27]", "CC50 at 72 h", "47.6 µM"),
    ("NC(=O)c1sc(Nc2ncccn2)nc1-c1ccccn1 [Entry 41]", "CC50 at 72 h", "≥ 50 µM"),
    ("CC(C)(C)OC(=O)c1sc(N(c2ncccn2)C(C)(C)C)nc1-c1ccccn1 [Entry 44]", "CC50 at 72 h", "≥ 50 µM"),
]

Next, consider the following molecule.
Query (molecule): CC(C)N(c1ncccn1)c1nc(-c2ccccn2)cs1 [Entry 16] ; field requested: CC50 at 72 h
≥ 50 µM

----------
# Test system: Huh7 cells
# assay_protocol: MTT cell viability assay, Huh7 cells, 72 h
# Type: cell-based
# condition_description: hepatocellular carcinoma derived Huh7 cells, 72 hours, MTT, 0.016-50.0 μM tested; read-out: Huh7 CC50
result_type: CC50

// CC50 lookup, key: `N#Cc1sc(Nc2ncccn2)nc1-c1ccccn1`
≤ 16 nM

----------
# Test system: THLE2 cells
# assay_protocol: MTT cell viability assay, THLE2 cells, 72 h
# Type: cell-based
# condition_description: immortalized normal hepatocytes THLE2, 72 hours, 0.016-50.0 μM tested
result_type: CC50

Find the recorded CC50 belonging to `N#Cc1sc(Nc2ncccn2)nc1-c1ccccn1` and report it.
≥ 50 µM

----------
# assay_protocol: MTT cell viability assay, THLE2 cells, 72 h
# Format: cell-based
# condition_description: human, immortalized normal hepatocytes THLE2, 72 hours, 0.016-50.0 μM tested
Mark YES for CC50 at 72 h under 40 µM, NO if at or over.

Sample answers from the record:
# compound, answer_label
data = [
    ("CCOC(=O)c1sc(Nc2ncccn2)nc1-c1cccc(C)n1 [Entry 36]", "NO"),
    ("Cc1ccnc(Nc2nc(-c3ccccn3)cs2)n1 [Entry 30]", "NO"),
    ("c1ccc(CN(c2ncccn2)c2nc(-c3ccccn3)cs2)cc1 [Entry 18]", "NO"),
]

Determine whether this compound shows CC50 at 72 h lower than 40 µM (ties excluded): c1ccc(-c2csc(Nc3ccncn3)n2)nc1 [Entry 12]
YES

Given the entry CCOC(=O)c1sc(Nc2ncccn2)nc1-c1cc(C)ccn1 [Entry 35] , would its reported CC50 at 72 h be below 40 µM?
YES

Does NC(=O)c1sc(Nc2ncccn2)nc1-c1ccccn1 [Entry 41] have CC50 at 72 h strictly under 40 µM?
YES

Lab note: CC50 at 72 h threshold 40 µM. Does this compound come in strictly under it? CC(=O)OCc1sc(Nc2ncccn2)nc1-c1ccccn1 [Entry 42]
NO

Report whether reported CC50 at 72 h is lower than 40 µM (strictly) for Clc1cnc(Nc2nc(-c3ccccn3)cs2)nc1 [Entry 13]
NO

----------
Reported CC50 at 72 h values are given for each entry in this list.
# assay_protocol: MTT cell viability assay, PH5CH cells, 72 h
# Format: cell-based
# condition_description: human, immortalized normal hepatocytes PH5CH, 0.016-50.0 μM tested
Write it as a number; the unit µM goes unstated.

These solved cases illustrate the format of a correct answer.
# compound_structure_string, result_type, value
rows = [
    ("Cc1sc(Nc2ncccn2)nc1-c1ccccn1", "CC50 at 72 h", 42),
    ("O=C(NCc1ccccc1)c1sc(Nc2ncccn2)nc1-c1ccccn1", "CC50 at 72 h", 31.5),
    ("COC(=O)c1sc(Nc2ncccn2)nc1-c1ccccn1", "CC50 at 72 h", 38.6),
    ("CCOC(=O)c1sc(Nc2ncccn2)nc1-c1cc(C)ccn1", "CC50 at 72 h", 39.2),
    ("Cc1ccnc(-c2csc(Nc3ncccn3)n2)c1", "CC50 at 72 h", 34),
]

# get_value(readout='CC50 at 72 h', item= `CNC(=O)c1sc(Nc2ncccn2)nc1-c1ccccn1` )
2.89

For the compound shown here, `c1ccc(CN(c2ncccn2)c2nc(-c3ccccn3)cs2)cc1` , give the reported CC50 at 72 h.
46.9

----------
# assay_protocol: MTT cell viability assay, THLE2 cells, 72 h
# Format: cell-based
# condition_description: human, immortalized normal hepatocytes THLE2, 72 hours, 0.016-50.0 μM tested
result_type: CC50 at 72 h

# compound, value
measured = [
    ("CCCC(=O)OCc1sc(Nc2ncccn2)nc1-c1ccccn1", "≥ 50 µM"),
    ("CN(Cc1cnc2nc(N)nc(N)c2n1)c1ccc(C(=O)NC(CCC(=O)NCCOCCOCCOCCOCCOCCNC(=O)c2sc(Nc3ncccn3)nc2-c2ccccn2)C(=O)OC(C)(C)C)cc1 (stereo not drawn)", "≥ 50 µM"),
]

The record that follows has no CC50 at 72 h shown yet.
Look up CC50 at 72 h: `CC(C)N(c1ncccn1)c1nc(-c2ccccn2)cs1`
≥ 50 µM
